- test system: UniProt Q07812
- protocol details: SMAC mCherry assay in permeabilized Bax-/- Bak-/- BMK cells with recombinant Bax and cBid
- conditions used: 20 nM Bax, 0.5 nM cBid, 60-80 minutes; read-out: SMAC mCherry I.D IC50
pIC50: −log10 of the molar value.
measured metric: pIC50

Look at this molecule and give its reported pIC50. O=C(CCCN1CCCCC1)Nc1ccc2ccnc(Nc3ccc(F)c(Cl)c3)c2c1 5.00 to 7.00

====

Measured IC50 by item
- test system: BAX (Homo sapiens)
- Sequence (Q07812 whole entry): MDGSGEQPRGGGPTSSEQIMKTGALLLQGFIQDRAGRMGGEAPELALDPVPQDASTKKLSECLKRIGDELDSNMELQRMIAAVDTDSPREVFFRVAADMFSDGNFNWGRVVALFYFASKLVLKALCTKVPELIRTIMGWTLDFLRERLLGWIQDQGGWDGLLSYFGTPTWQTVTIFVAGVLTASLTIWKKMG
- protocol details: SMAC mCherry assay in permeabilized Bax-/- Bak-/- BMK cells with recombinant Bax and cBid
- conditions used: 20 nM Bax, 0.5 nM cBid, 60-80 minutes; read-out: SMAC mCherry I.D IC50
- Method: Bax−/− Bak−/− double-knockout Baby Mouse Kidney (BMK) cells stably expressing a SMAC-(1-56)-mCherry fusion protein were cultured in DMEM complete (DMEM supplemented with 10% FBS and 1× Penicillin-Streptomycin) in 10 cm diameter tissue-culture treated dishes at 37° C. in a humidified incubator with 5% CO2 in air. […] Data was processed using PerkinElmer Harmony software where the cells were segmented using the DRAQ5 channel and the mean intensity of SMAC-mCherry for each cell was calculated. […]

// known answers, use as guide
COc1cc2ccnc(Nc3cccc(Cl)c3)c2cc1NC(=O)CCCN1CCCCC1 [Compound 1-13]: 11 to 50 µM
COc1cc2ccnc(Nc3ccc(F)c(Cl)c3)c2cc1NC(=O)CCCCN1CCCCC1 [Compound 1-2]: 0.1 to 10 µM
COc1cc2ccnc(Nc3ccc(F)c(Cl)c3)c2cc1NC(=O)CCCN1CCOCC1 [Compound 1-6]: 11 to 50 µM

Look at this compound and give its reported IC50. COc1cccc(Nc2nccc3cc(OC)c(NC(=O)CCCN4CCCCC4)cc23)c1 [Compound 1-10] > 100 µM
